// provenance: patent US11767322B2

Each entry below carries its recorded IC50.
target.or.system: His-GST-TVMV-hRIPK1(1-324) (Homo sapiens)
Construct: The coding region of human RIPK1(1-324) flanked by NdeI site at 5′ end; made in house; host or cells: Spodoptera frugiperda Sf9 insect cells (baculovirus, Bac-to-Bac)
measurement.protocol: biochemical
Assay type: binding
condition.info: HTRF probe displacement, 1 h at rt; read-out: RIPK1 IC50
Unit nM implied. Number only.

Consider the following illustrative entries.
| compound | unit.descriptor | experimental.result |
| --- | --- | --- |
| Cc1ccc(C(O)C(F)(F)CNC(=O)c2c(Cl)ccc(-c3ccn4nc(N)nc4c3)c2F)c(F)c1 (centres unmarked) [Example 182] | nM | 1.2 |
| Cc1ccc(-c2ccn3nc(N)nc3c2)c(F)c1C(=O)NCC(F)(F)C(C)(O)c1ccc(Cl)cc1 (single isomer, unassigned) [Example 222] | nM | 3.2 |
| COc1c(-c2ccc(C)c(C(=O)NCC[C@H](O)c3ccc(Cl)cc3)c2F)ccn2nc(N)nc12 [compound 133] | nM | 3.8 |
| [2H]C([2H])([2H])c1ccc(-c2ccn3nc(N)nc3c2)c(F)c1C(=O)NCC1(C(O)c2ccc(F)cc2)CC1 (single isomer, unassigned) [Example 308] | nM | 12 |
| Cc1cc(F)c(-c2ccn3nc(N)nc3c2)cc1C(=O)NCC[C@H](O)c1ccc(Cl)cc1 | nM | 1.2 |
| Cc1ccc(-c2ccn3nc(N)nc3c2)c(F)c1C(=O)NCCC(C)(F)c1ccc(Cl)cc1 (centres unmarked) | nM | 0.9 |
| Nc1nc2cc(-c3ccc(Cl)c(C(=O)NCCC(O)c4ccc(Cl)cn4)c3F)ccn2n1 (centres unmarked) [Example 81] | nM | 24 |
| [2H]C([2H])([2H])C(O)(c1ccc(F)cc1)C(F)CNC(=O)c1c(C(F)F)ccc(-c2ccn3nc(N)nc3c2)c1F (single isomer, unassigned) [Example 196] | nM | 14 |
| COC(=O)c1ccc(CCCNC(=O)c2c(Cl)ccc(-c3ccn4nc(N)nc4c3)c2F)cc1 | nM | 3.9 |
| COc1ccc(-c2ccn3nc(N)nc3c2)c(F)c1C(=O)NCC(F)(F)C(O)c1ccc(Cl)c(Cl)c1 (centres unmarked) [Example 267] | nM | 2.8 |

Fill blank: measured IC50 of the compound Cc1ccc(-c2ccn3nc(N)nc3c2)c(F)c1C(=O)NCCC(O)c1ccc(C(F)(F)F)cc1 (centres unmarked) [Example 55] is ____.
0.3

Fill blank: measured IC50 of the compound `CCc1ccc(-c2ccn3nc(N)nc3c2)cc1C(=O)NCC[C@H](O)c1ccc(Cl)cc1` is ____.
1.8

Fill blank: measured IC50 of the compound COc1cc(Cl)ccc1C(O)CCNC(=O)c1c(C)ccc(-c2ccn3nc(N)nc3c2)c1F (single isomer, unassigned) is ____.
28

Fill blank: measured IC50 of the compound Cc1ccc(-c2ccn3nc(N)nc3c2)c(F)c1C(=O)NCC(F)(F)C(O)c1ccc(F)cn1 (centres unmarked) [Example 269] is ____.
4.6

---

target.or.system: His-GST-TVMV-hRIPK1(1-324) (Homo sapiens, UniProt Q13546)
Construct: The coding region of human RIPK1(1-324) flanked by NdeI site at 5′ end; made in house; host or cells: Spodoptera frugiperda Sf9 insect cells (baculovirus, Bac-to-Bac)
Sequence (Q13546 1-324): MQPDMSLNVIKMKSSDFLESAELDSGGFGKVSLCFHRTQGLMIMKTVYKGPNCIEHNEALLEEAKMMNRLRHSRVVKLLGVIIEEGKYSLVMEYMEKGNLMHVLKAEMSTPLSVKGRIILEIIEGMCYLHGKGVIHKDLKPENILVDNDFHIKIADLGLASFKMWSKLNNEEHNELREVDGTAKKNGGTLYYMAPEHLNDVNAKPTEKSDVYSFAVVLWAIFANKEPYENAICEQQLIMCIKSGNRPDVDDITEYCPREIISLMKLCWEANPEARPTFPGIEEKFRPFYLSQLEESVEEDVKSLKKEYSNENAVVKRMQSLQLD
measurement.protocol: biochemical
Assay type: binding
condition.info: HTRF probe displacement, 1 h at rt; read-out: RIPK1 IC50
Each entry below carries its recorded IC50.
Unit nM implied. Number only.

Consider the following illustrative entries.
| compound | experimental.result |
| --- | --- |
| Nc1nc2cc(-c3ccc(Cl)c(C(=O)NCC(F)(F)C(O)c4ccc(Cl)c(Cl)c4)c3F)ccn2n1 (single isomer, unassigned) [Example 265] | 4.1 |
| Nc1nc2cc(-c3ccc(Cl)c(C(=O)NCC(F)(F)C(O)c4ccc(Cl)cc4F)c3F)ccn2n1 (single isomer, unassigned) [Example 162] | 1.6 |
| Nc1nc2cc(-c3ccc(Cl)c(C(=O)NCC(F)(F)C(O)c4ccc(Cl)cc4F)c3F)ccn2n1 (single isomer, unassigned) [Example 163] | 0.3 |
| [2H]C([2H])([2H])c1ccc(-c2ccn3nc(N)nc3c2)c(F)c1C(=O)NCC(F)(F)C(O)c1ccc(F)cc1 (stereo not drawn) [Example 123] | 5.7 |
| Cc1ccc(-c2ccn3nc(N)nc3c2)c(F)c1C(=O)NCCC(O)c1ccc(Cl)cc1F (single isomer, unassigned) [Example 69] | 1.4 |

Fill blank: measured IC50 of the compound [2H]C([2H])([2H])c1ccc(-c2ccn3nc(N)nc3c2)c(F)c1C(=O)NCC1(C([2H])(O)c2ccc(F)cc2)CC1 (single isomer, unassigned) [Example 309] is ____.
6.2

---

target.or.system: GST-tagged PIK3Cδ in complex with PIK3R1 (Homo sapiens)
Sequence (O00329 whole entry): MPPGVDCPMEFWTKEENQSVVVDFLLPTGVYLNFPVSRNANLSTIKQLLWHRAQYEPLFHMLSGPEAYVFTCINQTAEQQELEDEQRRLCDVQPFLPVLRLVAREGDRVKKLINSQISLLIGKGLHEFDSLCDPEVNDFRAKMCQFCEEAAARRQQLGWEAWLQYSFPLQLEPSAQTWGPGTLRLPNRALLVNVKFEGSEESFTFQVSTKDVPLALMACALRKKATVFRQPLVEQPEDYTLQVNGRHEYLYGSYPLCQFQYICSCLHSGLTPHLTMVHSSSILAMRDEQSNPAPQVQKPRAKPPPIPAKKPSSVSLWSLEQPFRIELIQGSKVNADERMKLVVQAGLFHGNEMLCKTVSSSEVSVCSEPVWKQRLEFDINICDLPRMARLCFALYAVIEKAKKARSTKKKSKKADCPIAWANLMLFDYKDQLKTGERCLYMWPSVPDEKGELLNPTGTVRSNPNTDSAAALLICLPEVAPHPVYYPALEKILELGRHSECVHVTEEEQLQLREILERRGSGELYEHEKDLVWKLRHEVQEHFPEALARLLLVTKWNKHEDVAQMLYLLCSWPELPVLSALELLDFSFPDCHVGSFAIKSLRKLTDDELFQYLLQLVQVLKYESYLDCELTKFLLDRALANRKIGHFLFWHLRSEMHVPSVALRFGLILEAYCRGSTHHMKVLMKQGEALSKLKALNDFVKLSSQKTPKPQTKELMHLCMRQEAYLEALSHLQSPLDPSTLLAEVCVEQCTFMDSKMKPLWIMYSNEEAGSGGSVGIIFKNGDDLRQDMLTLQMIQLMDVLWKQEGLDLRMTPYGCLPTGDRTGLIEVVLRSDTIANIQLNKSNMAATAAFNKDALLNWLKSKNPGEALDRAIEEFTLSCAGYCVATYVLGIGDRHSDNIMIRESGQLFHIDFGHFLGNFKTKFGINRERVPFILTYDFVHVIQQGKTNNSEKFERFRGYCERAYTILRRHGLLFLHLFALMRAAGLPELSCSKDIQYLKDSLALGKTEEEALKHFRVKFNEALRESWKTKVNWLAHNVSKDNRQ
Sequence (P27986 whole entry partner): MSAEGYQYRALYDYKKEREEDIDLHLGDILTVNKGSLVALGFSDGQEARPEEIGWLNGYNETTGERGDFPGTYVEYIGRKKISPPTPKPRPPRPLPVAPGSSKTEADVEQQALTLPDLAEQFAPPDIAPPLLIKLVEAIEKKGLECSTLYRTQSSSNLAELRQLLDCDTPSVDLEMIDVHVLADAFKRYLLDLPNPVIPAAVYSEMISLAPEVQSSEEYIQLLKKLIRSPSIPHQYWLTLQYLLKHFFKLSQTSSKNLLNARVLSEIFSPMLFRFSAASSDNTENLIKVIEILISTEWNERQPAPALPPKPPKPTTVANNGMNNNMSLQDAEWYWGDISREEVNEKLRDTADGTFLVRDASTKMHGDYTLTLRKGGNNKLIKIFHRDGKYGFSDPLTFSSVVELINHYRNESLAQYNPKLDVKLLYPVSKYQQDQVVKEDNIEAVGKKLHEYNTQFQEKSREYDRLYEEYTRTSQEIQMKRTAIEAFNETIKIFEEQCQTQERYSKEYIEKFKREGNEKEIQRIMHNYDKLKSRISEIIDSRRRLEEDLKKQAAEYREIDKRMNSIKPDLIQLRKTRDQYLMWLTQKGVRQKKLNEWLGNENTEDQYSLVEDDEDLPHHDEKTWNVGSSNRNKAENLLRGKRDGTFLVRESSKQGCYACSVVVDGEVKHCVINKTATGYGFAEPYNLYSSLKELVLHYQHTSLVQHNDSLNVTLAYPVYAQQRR
measurement.protocol: PI3Kδ HTRF binding assay
condition.info: HTRF probe displacement, 1 h at rt; read-out: PIK3CD IC50
experimental.endpoint: IC50

Fill blank: measured IC50 of the compound Cc1ccc(-c2ccn3nc(N)nc3c2)c(F)c1C(=O)NC(CF)CC(O)c1ccc(F)cc1 (single isomer, unassigned) [Example 28] is ____.
8.8 µM

Fill blank: measured IC50 of the compound Nc1nc2cc(-c3ccc(Cl)c(C(=O)NCCC4(c5ccc(F)cc5)CC4)c3F)ccn2n1 [Example 84] is ____.
> 15 µM

Fill blank: measured IC50 of the compound Nc1nc2cc(-c3ccc(Cl)c(C(=O)NCC[C@@H](O)c4ccc(Cl)cc4)c3)ccn2n1 [Example 90] is ____.
> 15 µM

Fill blank: measured IC50 of the compound Nc1nc2cc(-c3ccc(Cl)c(C(=O)NCC(F)(F)C(O)c4ccc(Cl)c(Cl)c4)c3F)ccn2n1 (single isomer, unassigned) [Example 264] is ____.
> 15 µM

Fill blank: measured IC50 of the compound Nc1nc2cc(-c3ccc(Cl)c(C(=O)NC[C@@H](F)[C@H](O)c4ccc(F)cc4)c3F)ccn2n1 (single isomer, unassigned) [Example 297] is ____.
> 15 µM

Fill blank: measured IC50 of the compound Cc1ccc(-c2ccn3nc(N)nc3c2)c(F)c1C(=O)NCCC(O)c1ccc(Cl)c(Cl)c1 (single isomer, unassigned) [Example 33] is ____.
> 15 µM

---

target.or.system: His-GST-TVMV-hRIPK1(1-324) (Homo sapiens, UniProt Q13546)
Construct: The coding region of human RIPK1(1-324) flanked by NdeI site at 5′ end; made in house; host or cells: Spodoptera frugiperda Sf9 insect cells (baculovirus, Bac-to-Bac)
measurement.protocol: biochemical
Format: binding
condition.info: HTRF probe displacement, 1 h at rt; read-out: RIPK1 IC50
Entries whose IC50 is below 3 nM take satisfied; entries at or above 3 nM take not satisfied.

Look over these answered cases.
| molecule | target.or.system | assigned.class |
| --- | --- | --- |
| [2H]C([2H])(CC([2H])(O)c1ccc(Cl)cc1)NC(=O)c1c(Cl)ccc(-c2ccn3nc(N)nc3c2)c1F (stereo not shown) [Example 75] | His-GST-TVMV-hRIPK1(1-324) (Homo sapiens, UniProt Q13546) | not satisfied |
| Nc1nc2cc(-c3ccc(Cl)c(C(=O)NCC(F)(F)C(O)c4cccc(Cl)c4)c3F)ccn2n1 (stereo not shown) [Example 192] | His-GST-TVMV-hRIPK1(1-324) (Homo sapiens, UniProt Q13546) | not satisfied |
| Cc1ccc(-c2ccn3nc(N)nc3c2)c(F)c1C(=O)NCC(O)C(F)(F)c1ccc(F)cc1 (single isomer, unassigned) [Example 290] | His-GST-TVMV-hRIPK1(1-324) (Homo sapiens, UniProt Q13546) | not satisfied |
| Cc1ccc(-c2ccn3nc(N)nc3c2)c(F)c1C(=O)NCCC(c1ccccc1)C(F)(F)F (racemic) [Example 11] | His-GST-TVMV-hRIPK1(1-324) (Homo sapiens, UniProt Q13546) | satisfied |
| Nc1nc2cc(-c3ccc(C(F)F)c(C(=O)NCC(F)(F)[C@@H](O)c4ccc(F)cc4)c3F)ccn2n1 [Example 295] | His-GST-TVMV-hRIPK1(1-324) (Homo sapiens, UniProt Q13546) | not satisfied |

Consider Nc1nc2cc(-c3ccc(Cl)c(C(=O)NCC(F)(F)C(O)c4ccc(OC(F)F)cc4)c3F)ccn2n1 (stereo not shown) [Example 186] . Does its IC50 lie strictly below 3 nM?
satisfied

Consider [2H]C([2H])([2H])C(O)(c1ccc(F)cc1)C(F)CNC(=O)c1c(C(F)F)ccc(-c2ccn3nc(N)nc3c2)c1F (single isomer, unassigned) [Example 195] . Does its IC50 lie strictly below 3 nM?
not satisfied

Consider [2H]C([2H])([2H])C(O)(c1ccc(F)cc1)C(F)CNC(=O)c1c(Cl)ccc(-c2ccn3nc(N)nc3c2)c1F (single isomer, unassigned) [Example 239] . Does its IC50 lie strictly below 3 nM?
not satisfied

Consider Cc1cccc(C(O)C(F)(F)CNC(=O)c2c(Cl)ccc(-c3ccn4nc(N)nc4c3)c2F)c1 (stereo not shown) [Example 174] . Does its IC50 lie strictly below 3 nM?
satisfied

Consider Cc1cc(F)c(-c2ccn3nc(N)nc3c2)cc1C(=O)NCCC(O)c1ccc(Cl)cn1 (single isomer, unassigned) [Example 7] . Does its IC50 lie strictly below 3 nM?
not satisfied

Consider Cc1ccc(-c2ccn3nc(N)nc3c2)c(F)c1C(=O)NCCC1(c2ccc(F)cc2)CC1 [Example 16] . Does its IC50 lie strictly below 3 nM?
satisfied

Consider Cc1ccc(-c2ccn3nc(N)nc3c2)c(F)c1C(=O)NC(C)CC(O)c1ccc(F)cc1 (single isomer, unassigned) [Example 39] . Does its IC50 lie strictly below 3 nM?
not satisfied

Consider Cc1ccc(-c2ccn3nc(N)nc3c2)c(F)c1C(=O)NCCC(C)(O)c1ccc(Cl)cc1 (single isomer, unassigned) [Example 60] . Does its IC50 lie strictly below 3 nM?
satisfied
